# melting point annotations

{"COMPOUND": "Cc1ccc(-c2csc(Nc3cccc(C(F)(F)F)c3)n2)cc1 [SKA-260]", "melting point [°C]": 108}
{"COMPOUND": "FC(F)(F)c1cccc(Nc2nc(-c3cccc4ccccc34)cs2)c1 [SKA-251]", "melting point [°C]": 135}
{"COMPOUND": "c1ccc(Nc2nc(-c3cccc4ccccc34)cs2)nc1 [SKA-258]", "melting point [°C]": 225}
{"COMPOUND": "FC(F)(F)c1ccc(Nc2nc(-c3ccccc3)cs2)cc1 [SKA-268]", "melting point [°C]": 153}
{"COMPOUND": "Nc1nc(-c2ccc(-c3csc(N)n3)cc2)cs1 [SKA-230, 4,4′-(1,4-Phenylene)bis(thiazol-2-amine)]", "melting point [°C]": 350}
{"COMPOUND": "Cc1ccc(-c2csc(Nc3ccc(C(F)(F)F)cc3)n2)cc1 [SKA-269]", "melting point [°C]": 155}

---

Quick reference for solubility among some compounds
# PROTOCOL DETAILS: Max. solubility (Table 1)
# Assay type: physicochemical

{"COMPOUND": "Nc1nc(-c2ccc(OC(F)(F)F)cc2)cs1 [SKA-41]", "solubility": "50 µM"}
{"COMPOUND": "Nc1nc(-c2ccc3ccccc3c2)cs1 [SKA-76, 4-(Naphthalen-2-yl)thiazol-2-amine]", "solubility": "25 µM"}
{"COMPOUND": "Nc1nc(-c2ccccc2)cs1 [SKA-78]", "solubility": "100 µM"}
{"COMPOUND": "Nc1nc(-c2cccc3ccccc23)cs1 [SKA-75, 4-(Naphthalen-1-yl)thiazol-2-amine]", "solubility": "25 µM"}
{"COMPOUND": "Cc1nc(-c2ccccc2)cs1 [SKA-88]", "solubility": "100 µM"}

---

# TARGET: NaV1.2 (Mus musculus, UniProt B1AWN6)
# Construct: N1E-115 cells that constitutively express NaV1.2; endogenous in cells
# Sequence (B1AWN6 whole entry): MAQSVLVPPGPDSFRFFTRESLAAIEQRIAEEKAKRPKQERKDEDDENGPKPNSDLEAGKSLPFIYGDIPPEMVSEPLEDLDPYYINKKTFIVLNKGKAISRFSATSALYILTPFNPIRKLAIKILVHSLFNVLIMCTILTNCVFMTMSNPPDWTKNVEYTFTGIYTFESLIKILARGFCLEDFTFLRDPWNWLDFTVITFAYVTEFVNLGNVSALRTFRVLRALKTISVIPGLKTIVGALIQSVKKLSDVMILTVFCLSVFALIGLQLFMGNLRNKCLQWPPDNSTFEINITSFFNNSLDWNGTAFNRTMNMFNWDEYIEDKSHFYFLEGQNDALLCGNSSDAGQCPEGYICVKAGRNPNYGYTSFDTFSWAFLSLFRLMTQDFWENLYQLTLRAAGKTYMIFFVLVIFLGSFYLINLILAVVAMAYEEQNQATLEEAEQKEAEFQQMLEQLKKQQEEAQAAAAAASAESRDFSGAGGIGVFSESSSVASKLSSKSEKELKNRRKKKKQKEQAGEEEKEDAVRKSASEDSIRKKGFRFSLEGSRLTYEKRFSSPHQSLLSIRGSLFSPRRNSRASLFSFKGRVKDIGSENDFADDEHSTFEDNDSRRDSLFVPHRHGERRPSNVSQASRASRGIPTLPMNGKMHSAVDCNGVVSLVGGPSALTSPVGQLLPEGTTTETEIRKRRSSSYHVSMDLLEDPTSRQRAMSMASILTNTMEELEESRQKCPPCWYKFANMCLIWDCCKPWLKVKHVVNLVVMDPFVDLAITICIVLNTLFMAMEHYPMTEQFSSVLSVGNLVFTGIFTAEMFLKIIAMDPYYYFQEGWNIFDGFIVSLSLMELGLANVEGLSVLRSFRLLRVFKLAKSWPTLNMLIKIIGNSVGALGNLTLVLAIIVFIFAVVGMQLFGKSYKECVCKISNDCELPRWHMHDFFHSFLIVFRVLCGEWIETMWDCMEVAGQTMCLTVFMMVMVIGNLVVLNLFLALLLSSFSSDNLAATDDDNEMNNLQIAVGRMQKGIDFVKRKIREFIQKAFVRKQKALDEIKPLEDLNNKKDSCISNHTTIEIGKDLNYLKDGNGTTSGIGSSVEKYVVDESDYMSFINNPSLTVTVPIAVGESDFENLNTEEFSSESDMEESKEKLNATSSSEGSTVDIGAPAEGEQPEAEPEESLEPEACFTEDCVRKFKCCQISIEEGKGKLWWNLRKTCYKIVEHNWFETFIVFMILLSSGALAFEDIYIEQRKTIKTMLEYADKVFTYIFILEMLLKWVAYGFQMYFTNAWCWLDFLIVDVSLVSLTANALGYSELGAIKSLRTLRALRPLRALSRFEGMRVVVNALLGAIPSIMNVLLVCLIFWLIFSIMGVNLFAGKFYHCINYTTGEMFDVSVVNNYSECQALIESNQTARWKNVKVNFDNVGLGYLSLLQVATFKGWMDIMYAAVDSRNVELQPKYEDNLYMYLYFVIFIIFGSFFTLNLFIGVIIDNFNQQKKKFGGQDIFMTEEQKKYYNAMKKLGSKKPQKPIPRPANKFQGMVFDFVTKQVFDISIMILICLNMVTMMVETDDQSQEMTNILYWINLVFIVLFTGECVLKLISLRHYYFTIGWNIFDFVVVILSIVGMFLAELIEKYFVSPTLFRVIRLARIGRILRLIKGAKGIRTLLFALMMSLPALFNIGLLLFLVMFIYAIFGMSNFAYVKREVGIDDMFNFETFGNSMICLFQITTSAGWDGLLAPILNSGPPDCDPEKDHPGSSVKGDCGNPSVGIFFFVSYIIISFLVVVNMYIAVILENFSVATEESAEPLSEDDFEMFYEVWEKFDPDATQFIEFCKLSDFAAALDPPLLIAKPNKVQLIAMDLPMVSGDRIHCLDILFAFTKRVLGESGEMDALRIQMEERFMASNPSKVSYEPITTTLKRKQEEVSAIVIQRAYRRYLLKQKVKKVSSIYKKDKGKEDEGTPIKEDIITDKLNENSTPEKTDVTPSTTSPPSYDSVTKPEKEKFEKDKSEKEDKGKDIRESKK
# PROTOCOL DETAILS: NaV currents recorded by whole-cell patch clamp from N1E-115 neuroblastoma cells expressing NaV1.2
# REPORTED CONDITIONS: N1E-115 cells; read-out: EC50 concentration to inhibit NaV1.2
pEC50: −log10 of the molar value.

{"MOL": "Nc1nc(-c2cccc3ccccc23)c(Br)s1", "pEC50": "~4.52"}

---

# PROTOCOL DETAILS: SKA-41 concentrations in plasma and brain by LC/MS after i.p. injection
# Type: in vivo
# REPORTED CONDITIONS: male, Sprague-Dawley, rat, brain, intraperitoneal; 10 mg/kg i.p., 1 h, n=3 rats; read-out: brain concentration, average
PROPERTY NAME: concentration at 1 h (µM)

{"MOL": "Nc1nc(-c2ccc(OC(F)(F)F)cc2)cs1", "PROPERTY NAME": "concentration at 1 h", "MEASURED VALUE": 12.6}

---

The entries below are paired with their reported solubility.
# PROTOCOL DETAILS: Max. solubility (Table 1)
# Format: physicochemical
PROPERTY NAME: solubility (µM)

{"MOL": "Cc1ccc2cccc(-c3csc(N)n3)c2c1", "MEASURED VALUE": 50}
{"MOL": "Nc1nc(-c2ccc(-c3ccccc3)cc2)cs1", "MEASURED VALUE": 50}
{"MOL": "Cc1sc(N)nc1-c1ccccc1", "MEASURED VALUE": 100}
{"MOL": "Cc1ccc(-c2csc(N)n2)c2ccccc12", "MEASURED VALUE": 50}
{"MOL": "Nc1nc(-c2ccc3ccccc3c2)c(Br)s1", "MEASURED VALUE": 25}
{"MOL": "Cc1ccc2cc(-c3csc(N)n3)ccc2c1", "MEASURED VALUE": 50}
{"MOL": "Cc1ccc(-c2csc(Nc3ccc(C(F)(F)F)cc3)n2)cc1", "MEASURED VALUE": 10}
{"MOL": "FC(F)(F)c1cccc(Nc2nc(-c3cccc4ccccc34)cs2)c1", "MEASURED VALUE": 10}
{"MOL": "Clc1ccc(Nc2nc(-c3cccc4ccccc34)cs2)cc1Cl", "MEASURED VALUE": 10}
{"MOL": "Nc1nc(-c2ccc(Cl)cc2)cs1", "MEASURED VALUE": 50}
{"MOL": "c1ccc(-c2csc(Nc3ccccn3)n2)cc1", "MEASURED VALUE": 50}
{"MOL": "Cc1sc(N)nc1-c1ccc(C)c2ccccc12", "MEASURED VALUE": 50}
{"MOL": "Nc1nc(-c2cccc3ccccc23)c(Br)s1", "MEASURED VALUE": 25}
{"MOL": "FC(F)(F)c1ccc(Nc2nc(-c3ccccc3)cs2)cc1", "MEASURED VALUE": 10}
{"MOL": "Cc1ccc(-c2csc(N)n2)cc1", "MEASURED VALUE": 100}
{"MOL": "Nc1nc(-c2ccc(-c3ccc(-c4csc(N)n4)cc3)cc2)cs1", "MEASURED VALUE": 10}
{"MOL": "Nc1nc(-c2ccsc2)cs1", "MEASURED VALUE": 100}
{"MOL": "Cc1ccc(-c2csc(Nc3cccc(C(F)(F)F)c3)n2)cc1", "MEASURED VALUE": 10}
{"MOL": "Nc1nc(-c2ccc(-c3csc(N)n3)cc2)cs1", "MEASURED VALUE": 50}
{"MOL": "c1ccc(Nc2nc(-c3ccccc3)cs2)cc1", "MEASURED VALUE": 25}
{"MOL": "Cc1nc(-c2ccccc2)c(C)s1", "MEASURED VALUE": 100}
{"MOL": "c1ccc(Nc2nc(-c3cccc4ccccc34)cs2)nc1", "MEASURED VALUE": 10}
{"MOL": "Nc1nc(-c2ccc(F)cc2)cs1", "MEASURED VALUE": 100}
